Molecular target: GST (human placenta, hGSTP1-1) (Homo sapiens, UniProt P09211)
Sequence (P09211 2-210 limits assumed): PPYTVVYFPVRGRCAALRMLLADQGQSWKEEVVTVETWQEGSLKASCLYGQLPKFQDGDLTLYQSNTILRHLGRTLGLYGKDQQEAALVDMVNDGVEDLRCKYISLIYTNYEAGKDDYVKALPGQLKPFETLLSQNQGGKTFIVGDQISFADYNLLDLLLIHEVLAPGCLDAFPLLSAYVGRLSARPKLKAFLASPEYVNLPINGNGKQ
Assay: Competitive and non-competitive GST inhibition, Lineweaver-Burk plots, Ki
Format: biochemical
Conditions: Ki with respect to CDNB (0.2–1 mM), GSH 1 mM; apparent Ki

[
  {
    "CHEMICAL STRUCTURE": "O=C(/C=C/c1ccc(O)c(O)c1)OCCc1ccccc1",
    "MEASUREMENT UNIT": "µM",
    "Ki": 233
  }
]

###

Biological target: GST (human placenta, hGSTP1-1) (Homo sapiens)
Test: Competitive and non-competitive GST inhibition, Lineweaver-Burk plots, Ki
Assay type: biochemical
Conditions: Ki with respect to GSH (0.2–1 mM), CDNB 1 mM; apparent Ki

[
  {
    "CHEMICAL STRUCTURE": "O=C(/C=C/c1ccc(O)c(O)c1)OCCc1ccccc1",
    "Ki / µM": 942
  }
]

###

Target: GST (human placenta, hGSTP1-1) (Homo sapiens, UniProt P09211)
Assay: Competitive and non-competitive GST inhibition, Lineweaver-Burk plots, Ki
Type: biochemical
Conditions: read-out: Ki with respect to CDNB (0.2–1 mM); GSH 1 mM; apparent Ki
pKi: −log10 of the molar value.

[
  {
    "CHEMICAL STRUCTURE": "O=C(/C=C/C1=CC(=O)C(=O)C=C1)OCCc1ccccc1",
    "ASSAY TARGET": "GST (human placenta, hGSTP1-1) (Homo sapiens, UniProt P09211)",
    "pKi": 5.57
  }
]

###

Target: GST (human placenta, hGSTP1-1) (Homo sapiens)
Test: Competitive and non-competitive GST inhibition, Lineweaver-Burk plots, Ki
Assay type: biochemical
Settings: read-out: Ki with respect to GSH (0.2–1 mM); CDNB 1 mM; apparent Ki
pKi: −log10 of the molar value.

[
  {
    "CHEMICAL STRUCTURE": "O=C(/C=C/C1=CC(=O)C(=O)C=C1)OCCc1ccccc1",
    "pKi": 6.15
  }
]

// provenance: paper PMC3706206
